Biological target: USP8 Rhod domain (Homo sapiens)
Construct: USP8 Rhod (174–317) (UniProt: P40818); GST (cleaved yes); made in house; host or cells: Escherichia coli BL21-Gold (DE3)
Sequence (P40818 174-317): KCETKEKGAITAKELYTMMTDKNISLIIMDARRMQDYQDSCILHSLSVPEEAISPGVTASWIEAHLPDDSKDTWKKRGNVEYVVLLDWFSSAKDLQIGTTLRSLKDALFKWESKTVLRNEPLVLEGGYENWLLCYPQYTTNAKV
Test: Peptide-phage display-based deep mutational scanning (DMS), USP8 Rhod domain
Type: binding
Conditions: PSSM, library USP8_DMS, days 2,3; position 10
observation type: enrichment_relative_to_wt at position 10 (wt S)
Number only, no unit.

Solved cases below.
[[record]]
substance = "KIAA1614_Q5VZ46_569_584 S10H (MERVLGGLSHPLRLLP; UniProt Q5VZ46 569-584, looked up, variant S10H)"
system = "USP8 Rhod domain (Homo sapiens)"
readout_number = -1.37

[[record]]
substance = "KIAA1614_Q5VZ46_569_584 S10V (MERVLGGLSVPLRLLP; peptide 569-584; UniProt Q5VZ46 569-584, looked up, variant S10V)"
system = "USP8 Rhod domain (Homo sapiens)"
readout_number = -328


query: Look up enrichment_relative_to_wt at position 10 (wt S) for this substance: KIAA1614_Q5VZ46_569_584 S10E (MERVLGGLSEPLRLLP; UniProt Q5VZ46 569-584, looked up, variant S10E)
result: -77

query: Look up enrichment_relative_to_wt at position 10 (wt S) for this substance: KIAA1614_Q5VZ46_569_584 S10I (MERVLGGLSIPLRLLP; UniProt Q5VZ46 569-584, looked up, variant S10I)
result: -231

---

Recorded Confidence, one value per entry.
Tested on: USP8 MIT domain
Test: Proteomic peptide-phage display (ProP-PD) selection against USP8 MIT domain
Assay type: binding, human
Parameters: scale not given here
Conditions: calculated based on four metrics: overlapping peptides, replicated peptides, motif match, peptide counts
Description: We explored the peptide-binding of the USP8 MIT domain by using the purified GST-tagged MIT domain as bait in proteomic peptide-phage display (ProP-PD) selections and a library designed to display the predicted unstructured regions of the human proteome. The peptide-coding regions of the binding-enriched phage pools were analysed by next-generation sequencing (NGS). After filtering for high confidence ligands, ten ligands remained (Fig. 1B; Supplementary Table S1). […]
Number only, no unit.

Solved cases below.
[[record]]
biosequence = "PEKPHDSLDSRIEMLL [SETD1B492 − 507, Histone-lysine N-methyltransferase SETD1B peptide]"
observation_type = "Confidence"
readout_number = 3

[[record]]
biosequence = "EVEHRDLEDRYNQLLK [Girdin1192 − 1207, CCDC88A-encoded protein Girdin peptide]"
observation_type = "Confidence"
readout_number = 2

[[record]]
biosequence = "HRRVRTEGKESSSASR [CACNA1E, Voltage-dependent R-type calcium channel subunit alpha-1E peptide 923-938]"
observation_type = "Confidence"
readout_number = 2

[[record]]
biosequence = "MDDDYEAYHSLFLSLL [EFCAB12_1 − 16]"
observation_type = "Confidence"
readout_number = 3

[[record]]
biosequence = "YVDLDAFLLEHGLPPS [DBP116 − 131]"
observation_type = "Confidence"
readout_number = 2


query: Look up Confidence for this sequence: QAIYRHPLFPLLALLF [PKNOX1_56 − 71, Homeobox protein PKNOX1 peptide]
result: 2

query: Look up Confidence for this sequence: TKTLEERISKLISDNE [HIVEP1_741 − 756, Zinc finger protein 40 peptide]
result: 2

---

Recorded hit_pair_ratio, one value per entry.
Target: USP8 Rhod domain (Homo sapiens, UniProt P40818)
Construct: USP8 Rhod (174–317) (UniProt: P40818); GST (cleaved yes); made in house; host or cells: Escherichia coli BL21-Gold (DE3)
Experiment: Peptide-phage display-based deep mutational scanning (DMS), USP8 Rhod domain
Assay type: binding
Conditions: ProP-PD pairs, bait USP8_Rhodanese__P40818_174_317; wild-type/mutant pair, wild type KIAA1614 569-584 GMERVLGGLSSPLRLL (wt_00013)

[[record]]
biosequence = "GMERVLGGASSPLRLL"
observation_type = "hit_pair_ratio"
result = 1.62

[[record]]
biosequence = "GMERVLGGSSSPLRLL"
observation_type = "hit_pair_ratio"
result = 2.67

[[record]]
biosequence = "GFERVLGGLSSPLRLL"
observation_type = "hit_pair_ratio"
result = 1.56


query: Look up hit_pair_ratio for this sequence: GMTRVLGGLSSPLRLL
result: 23.00

query: Look up hit_pair_ratio for this sequence: GMERVGGGLSSPLRLL
result: 29.56

query: Look up hit_pair_ratio for this sequence: GMARVLGGLSSPLRLL
result: 8.89

query: Look up hit_pair_ratio for this sequence: FMERVLGGLSSPLRLL
result: 321.97

query: Look up hit_pair_ratio for this sequence: GVERVLGGLSSPLRLL
result: -8.18

query: Look up hit_pair_ratio for this sequence: GMERVLGGESSPLRLL
result: -80.43

query: Look up hit_pair_ratio for this sequence: GMERNLGGLSSPLRLL
result: -2.85

query: Look up hit_pair_ratio for this sequence: GMERVLFGLSSPLRLL
result: -3.55

query: Look up hit_pair_ratio for this sequence: GMERSLGGLSSPLRLL
result: 12.88

query: Look up hit_pair_ratio for this sequence: GMPRVLGGLSSPLRLL
result: 21.46

query: Look up hit_pair_ratio for this sequence: GRERVLGGLSSPLRLL
result: 1.40

query: Look up hit_pair_ratio for this sequence: VMERVLGGLSSPLRLL
result: 53.66

---

Recorded hit_pair_ratio, one value per entry.
Biological target: USP8 Rhod domain (Homo sapiens, UniProt P40818)
Construct: USP8 Rhod (174–317) (UniProt: P40818); GST (cleaved yes); made in house; host or cells: Escherichia coli BL21-Gold (DE3)
Experiment: Peptide-phage display-based deep mutational scanning (DMS), USP8 Rhod domain
Type: binding
Settings: bait USP8_Rhodanese__P40818_174_317; wild-type/mutant pair ratio of averaged fractions; negative values where mutant fraction is higher
Number only, no unit.

Solved cases below.
[[record]]
biosequence = "GLALWEAKMKRLAERA"
readout_number = 29.55

[[record]]
biosequence = "GLALWEAKMKQLAERE"
readout_number = 4.16

[[record]]
biosequence = "GLALWEAKMKNLAERA"
readout_number = 1.69

[[record]]
biosequence = "GLALWEAKMKQLAEMA"
readout_number = 12.23

[[record]]
biosequence = "GLALWEAKMKQLAEAA"
readout_number = 1107.01


query: Could you share what hit_pair_ratio was measured for GLALWEAKMKQLAQRA , tested on USP8 Rhod domain (Homo sapiens, UniProt P40818)?
result: 119.01

query: Could you share what hit_pair_ratio was measured for GLALWEAKMKQLAIRA , tested on USP8 Rhod domain (Homo sapiens, UniProt P40818)?
result: 1107.01

query: Could you share what hit_pair_ratio was measured for GLALWEAKMTQLAERA , tested on USP8 Rhod domain (Homo sapiens, UniProt P40818)?
result: 29.92

query: Could you share what hit_pair_ratio was measured for GLALWEAKMKQLAESA , tested on USP8 Rhod domain (Homo sapiens, UniProt P40818)?
result: -3.11

query: Could you share what hit_pair_ratio was measured for GLALWEAKMKQLNERA , tested on USP8 Rhod domain (Homo sapiens, UniProt P40818)?
result: 17.57

query: Could you share what hit_pair_ratio was measured for GLALWEAKMKFLAERA , tested on USP8 Rhod domain (Homo sapiens, UniProt P40818)?
result: 1107.01

query: Could you share what hit_pair_ratio was measured for GLALWEAKMAQLAERA , tested on USP8 Rhod domain (Homo sapiens, UniProt P40818)?
result: -3.11

---

Tested on: USP8 MIT domain
Experiment: Proteomic peptide-phage display (ProP-PD) selection against USP8 MIT domain
Assay type: binding, human
Details: fraction of NGS counts for a selection
Please assign f whenever Counts is at or above 0.002, and t whenever it is below.

Please review the entries below; each comes with its answer.
[[record]]
biosequence = "HDSLDSRIEMLLKEQR [SETD1B 496-511, Histone-lysine N-methyltransferase SETD1B peptide, overlapping]"
assigned_category = "t"

[[record]]
biosequence = "EVEHRDLEDRYNQLLK [Girdin1192 − 1207, CCDC88A-encoded protein Girdin peptide]"
assigned_category = "f"

[[record]]
biosequence = "PEKPHDSLDSRIEMLL [SETD1B492 − 507, Histone-lysine N-methyltransferase SETD1B peptide]"
assigned_category = "t"

[[record]]
biosequence = "SQKELESYMMRAQQLL [SYNE2_853 − 868, Nesprin-2 peptide]"
assigned_category = "t"

[[record]]
biosequence = "YVDLDAFLLEHGLPPS [DBP116 − 131]"
assigned_category = "f"


Next item in the queue.
query: Lab note: Counts threshold 0.002. Does this sequence come in strictly under it? VLSKRKGGNVGKSKRD [ERVK-21, Endogenous retrovirus group K member 21 Env polyprotein peptide 676-691]
result: t
